Test: in vivo
Details: female, SD, rat
property: Cmax (ng/mL)
Kindly answer with a numeric value in ng/mL, unit omitted.

Lookup result for Nc1ccc(O)c(C(=O)O)c1 ; measured Cmax: 13800

====

Assay: Pharmacokinetics of montelukast with and without sMAP
Conditions: female, SD, rat, plasma, 0.2 mg
property: Cmax (ng/mL)
Kindly answer with a numeric value in ng/mL, unit omitted.

Lookup result for CC(C)(O)c1ccccc1CC[C@@H](SCC1(CC(=O)O)CC1)c1cccc(/C=C/c2ccc3ccc(Cl)cc3n2)c1 [Montelukast, montelukast sodium] ; measured Cmax: 156

====

Experiment: in vivo
Settings: male, SD, rat
property: AUC(0-t)
Please make sure the unit comes right after the number.

Lookup result for Nc1ccc(O)c(C(=O)O)c1 ; measured AUC(0-t): 56100 ng·h/mL

Just for reference, patent US20230331792A1 is where these values come from.
